# Tested on: A549
# assay.notes: Cytotoxicity against FR-negative human A549 cells assessed as reduction in cell viability measured after 72 hrs by MTT assay
# Format: functional, cell-based
# details: A549, 72 h
pIC50: −log10 of the molar value.
measured.metric: pIC50

pIC50 lookup needed for CCc1c2c(nc3ccc(O)cc13)-c1cc3c(c(=O)n1C2)COC(=O)[C@]3(O)CC [7-ETHYL-10-HYDROXYCAMPTOTHECIN] , thanks.
6.00 to 6.52

###

# Test system: HeLa
# assay.notes: Cytotoxicity against FR-positive human HeLa cells assessed as reduction in cell viability measured after 72 hrs by MTT assay
# Type: functional, cell-based
Consider the following molecules; for each one, report its IC50.

# get_value(readout= IC50, system= HeLa) for CCc1c2c(nc3ccc(O)cc13)-c1cc3c(c(=O)n1C2)COC(=O)[C@]3(O)CC [7-ETHYL-10-HYDROXYCAMPTOTHECIN]
300 to 1000 nM

# iterate: CCc1c2c(nc3ccc(OCc4ccc(NC(=O)CNC(=O)[C@H](CC(C)C)NC(=O)[C@H](Cc5ccccc5)NC(=O)CNC(=O)COCCOCCOCCOCc5cn(CCOCCOCCOCCNC(=O)CC[C@H](NC(=O)c6ccc(NCc7cnc8nc(N)[nH]c(=O)c8n7)cc6)C(=O)O)nn5)cc4)cc13)-c1cc3c(c(=O)n1C2)COC(=O)[C@]3(O)CC
2000 to 3000 nM
